Cited source: patent US20060067886A1

# tissue uptake dose at 1 h listing for each entry below
Experiment: Biodistribution of radiometal-DOTA-BBN conjugates in CF1 normal mice
Settings: CF-1, mouse, in vivo, iv, total radioactivity, Avg % ID, Pancreas, 1 hour post-injection
QUANTITY NAME: tissue uptake dose at 1 h (%ID)

1) CSCC[C@H](NC(=O)[C@H](CC(C)C)NC(=O)[C@H](Cc1c[nH]cn1)NC(=O)CNC(=O)[C@@H](NC(=O)[C@H](C)NC(=O)[C@H](Cc1c[nH]c2ccccc12)NC(=O)[C@H](CCC(N)=O)NC(=O)CCCCCCCCCCNC(=O)CN1CCN(CC(=O)O)CCN(CC(=O)O)CCN(CC(=O)O)CC1)C(C)C)C(N)=O [111In-DOTA-11-Aun-BBN[7-14]NH2, metal not drawn]: 11.6
2) CSCC[C@H](NC(=O)[C@H](CC(C)C)NC(=O)[C@H](Cc1cnc[nH]1)NC(=O)CNC(=O)[C@@H](NC(=O)[C@H](C)NC(=O)[C@H](Cc1c[nH]c2ccccc12)NC(=O)[C@H](CCC(N)=O)NC(=O)CCCCCCCNC(=O)CN1CCN(CC(=O)O)CCN(CC(=O)O)CCN(CC(=O)O)CC1)C(C)C)C(N)=O [111In-DOTA-8-Aoc-BBN[7-14]NH2, metal not drawn]: 10.8
3) CSCC[C@H](NC(=O)[C@H](CC(C)C)NC(=O)[C@H](Cc1cnc[nH]1)NC(=O)CNC(=O)[C@@H](NC(=O)[C@H](C)NC(=O)[C@H](Cc1c[nH]c2ccccc12)NC(=O)[C@H](CCC(N)=O)NC(=O)CN1CCN(CC(=O)O)CCN(CC(=O)O)CCN(CC(=O)O)CC1)C(C)C)C(N)=O [111In-DOTA-0-BBN[7-14]NH2, metal not drawn]: 0.07
4) CSCC[C@H](NC(=O)[C@H](CC(C)C)NC(=O)[C@H](Cc1c[nH]cn1)NC(=O)CNC(=O)[C@@H](NC(=O)[C@H](C)NC(=O)[C@H](Cc1c[nH]c2ccccc12)NC(=O)[C@H](CCC(N)=O)NC(=O)CCCCNC(=O)CN1CCN(CC(=O)O)CCN(CC(=O)O)CCN(CC(=O)O)CC1)C(C)C)C(N)=O [111In-DOTA-5-Ava-BBN[7-14]NH2, metal not drawn]: 5.57

====

Assay: Biodistribution of radiometal-DOTA-BBN conjugates in CF1 normal mice
Details: 1 hour post-injection
QUANTITY NAME: Avg % ID/gm, Stomach (% ID/gm)

1. CSCC[C@H](NC(=O)[C@H](CC(C)C)NC(=O)[C@H](Cc1cnc[nH]1)NC(=O)CNC(=O)[C@@H](NC(=O)[C@H](C)NC(=O)[C@H](Cc1c[nH]c2ccccc12)NC(=O)[C@H](CCC(N)=O)NC(=O)CN1CCN(CC(=O)O)CCN(CC(=O)O)CCN(CC(=O)O)CC1)C(C)C)C(N)=O [149Pm-DOTA-0-BBN[7-14]NH2]: 0.04
2. CSCC[C@H](NC(=O)[C@H](CC(C)C)NC(=O)[C@H](Cc1cnc[nH]1)NC(=O)CNC(=O)[C@@H](NC(=O)[C@H](C)NC(=O)[C@H](Cc1c[nH]c2ccccc12)NC(=O)[C@H](CCC(N)=O)NC(=O)CN1CCN(CC(=O)O)CCN(CC(=O)O)CCN(CC(=O)O)CC1)C(C)C)C(N)=O [177Lu-DOTA-0-BBN[7-14]NH2] [metal not drawn]: 0.10
3. CSCC[C@H](NC(=O)[C@H](CC(C)C)NC(=O)[C@H](Cc1c[nH]cn1)NC(=O)CNC(=O)[C@@H](NC(=O)[C@H](C)NC(=O)[C@H](Cc1c[nH]c2ccccc12)NC(=O)[C@H](CCC(N)=O)NC(=O)CCCCNC(=O)CN1CCN(CC(=O)O)CCN(CC(=O)O)CCN(CC(=O)O)CC1)C(C)C)C(N)=O [177Lu-DOTA-5-Ava-BBN[7-14]NH2] [metal not drawn]: 1.48
4. CSCC[C@H](NC(=O)[C@H](CC(C)C)NC(=O)[C@H](Cc1c[nH]cn1)NC(=O)CNC(=O)[C@@H](NC(=O)[C@H](C)NC(=O)[C@H](Cc1c[nH]c2ccccc12)NC(=O)[C@H](CCC(N)=O)NC(=O)CCCCCCCCCCNC(=O)CN1CCN(CC(=O)O)CCN(CC(=O)O)CCN(CC(=O)O)CC1)C(C)C)C(N)=O [177Lu-DOTA-11-Aun-BBN[7-14]NH2] [metal not drawn]: 1.82
5. CSCC[C@H](NC(=O)[C@H](CC(C)C)NC(=O)[C@H](Cc1cnc[nH]1)NC(=O)CNC(=O)[C@@H](NC(=O)[C@H](C)NC(=O)[C@H](Cc1c[nH]c2ccccc12)NC(=O)[C@H](CCC(N)=O)NC(=O)CN1CCN(CC(=O)O)CCN(CC(=O)O)CCN(CC(=O)O)CC1)C(C)C)C(N)=O [111In-DOTA-0-BBN[7-14]NH2] [metal not drawn]: 0.06
6. CSCC[C@H](NC(=O)[C@H](CC(C)C)NC(=O)[C@H](Cc1c[nH]cn1)NC(=O)CNC(=O)[C@@H](NC(=O)[C@H](C)NC(=O)[C@H](Cc1c[nH]c2ccccc12)NC(=O)[C@H](CCC(N)=O)NC(=O)CCCCNC(=O)CN1CCN(CC(=O)O)CCN(CC(=O)O)CCN(CC(=O)O)CC1)C(C)C)C(N)=O [149Pm-DOTA-5-Ava-BBN[7-14]NH2]: 1.90
7. CSCC[C@H](NC(=O)[C@H](CC(C)C)NC(=O)[C@H](Cc1cnc[nH]1)NC(=O)CNC(=O)[C@@H](NC(=O)[C@H](C)NC(=O)[C@H](Cc1c[nH]c2ccccc12)NC(=O)[C@H](CCC(N)=O)NC(=O)CCNC(=O)CN1CCN(CC(=O)O)CCN(CC(=O)O)CCN(CC(=O)O)CC1)C(C)C)C(N)=O [177Lu-DOTA-β-Ala-BBN[7-14]NH2] [metal not drawn]: 0.34

====

# Avg % ID/gm, Pancreas listing for each entry below
Test: Biodistribution of radiometal-DOTA-BBN conjugates in CF1 normal mice
Settings: 1 hour post-injection
QUANTITY NAME: Avg % ID/gm, Pancreas (% ID/gm)

1) CSCC[C@H](NC(=O)[C@H](CC(C)C)NC(=O)[C@H](Cc1cnc[nH]1)NC(=O)CNC(=O)[C@@H](NC(=O)[C@H](C)NC(=O)[C@H](Cc1c[nH]c2ccccc12)NC(=O)[C@H](CCC(N)=O)NC(=O)CCNC(=O)CN1CCN(CC(=O)O)CCN(CC(=O)O)CCN(CC(=O)O)CC1)C(C)C)C(N)=O [177Lu-DOTA-β-Ala-BBN[7-14]NH2] [metal not drawn]: 1.44
2) CSCC[C@H](NC(=O)[C@H](CC(C)C)NC(=O)[C@H](Cc1c[nH]cn1)NC(=O)CNC(=O)[C@@H](NC(=O)[C@H](C)NC(=O)[C@H](Cc1c[nH]c2ccccc12)NC(=O)[C@H](CCC(N)=O)NC(=O)CCCCNC(=O)CN1CCN(CC(=O)O)CCN(CC(=O)O)CCN(CC(=O)O)CC1)C(C)C)C(N)=O [177Lu-DOTA-5-Ava-BBN[7-14]NH2] [metal not drawn]: 16.41

====

# Avg % ID/gm, L. Intestine listing for each entry below
Test: Biodistribution of radiometal-DOTA-BBN conjugates in CF1 normal mice
Conditions: 1 hour post-injection
QUANTITY NAME: Avg % ID/gm, L. Intestine (% ID/gm)

1) CSCC[C@H](NC(=O)[C@H](CC(C)C)NC(=O)[C@H](Cc1cnc[nH]1)NC(=O)CNC(=O)[C@@H](NC(=O)[C@H](C)NC(=O)[C@H](Cc1c[nH]c2ccccc12)NC(=O)[C@H](CCC(N)=O)NC(=O)CCCCCCCNC(=O)CN1CCN(CC(=O)O)CCN(CC(=O)O)CCN(CC(=O)O)CC1)C(C)C)C(N)=O [111In-DOTA-8-Aoc-BBN[7-14]NH2] [metal not drawn]: 2.66
2) CSCC[C@H](NC(=O)[C@H](CC(C)C)NC(=O)[C@H](Cc1cnc[nH]1)NC(=O)CNC(=O)[C@@H](NC(=O)[C@H](C)NC(=O)[C@H](Cc1c[nH]c2ccccc12)NC(=O)[C@H](CCC(N)=O)NC(=O)CCCCCCCNC(=O)CN1CCN(CC(=O)O)CCN(CC(=O)O)CCN(CC(=O)O)CC1)C(C)C)C(N)=O [149Pm-DOTA-8-Aoc-BBN[7-14]NH2]: 4.14
3) CSCC[C@H](NC(=O)[C@H](CC(C)C)NC(=O)[C@H](Cc1c[nH]cn1)NC(=O)CNC(=O)[C@@H](NC(=O)[C@H](C)NC(=O)[C@H](Cc1c[nH]c2ccccc12)NC(=O)[C@H](CCC(N)=O)NC(=O)CCCCCCCCCCNC(=O)CN1CCN(CC(=O)O)CCN(CC(=O)O)CCN(CC(=O)O)CC1)C(C)C)C(N)=O [177Lu-DOTA-11-Aun-BBN[7-14]NH2] [metal not drawn]: 6.31
4) CSCC[C@H](NC(=O)[C@H](CC(C)C)NC(=O)[C@H](Cc1cnc[nH]1)NC(=O)CNC(=O)[C@@H](NC(=O)[C@H](C)NC(=O)[C@H](Cc1c[nH]c2ccccc12)NC(=O)[C@H](CCC(N)=O)NC(=O)CCNC(=O)CN1CCN(CC(=O)O)CCN(CC(=O)O)CCN(CC(=O)O)CC1)C(C)C)C(N)=O [149Pm-DOTA-β-Ala-BBN[7-14]NH2]: 0.42
5) CSCC[C@H](NC(=O)[C@H](CC(C)C)NC(=O)[C@H](Cc1c[nH]cn1)NC(=O)CNC(=O)[C@@H](NC(=O)[C@H](C)NC(=O)[C@H](Cc1c[nH]c2ccccc12)NC(=O)[C@H](CCC(N)=O)NC(=O)CCCCNC(=O)CN1CCN(CC(=O)O)CCN(CC(=O)O)CCN(CC(=O)O)CC1)C(C)C)C(N)=O [177Lu-DOTA-5-Ava-BBN[7-14]NH2] [metal not drawn]: 3.78
6) CSCC[C@H](NC(=O)[C@H](CC(C)C)NC(=O)[C@H](Cc1c[nH]cn1)NC(=O)CNC(=O)[C@@H](NC(=O)[C@H](C)NC(=O)[C@H](Cc1c[nH]c2ccccc12)NC(=O)[C@H](CCC(N)=O)NC(=O)CCCCNC(=O)CN1CCN(CC(=O)O)CCN(CC(=O)O)CCN(CC(=O)O)CC1)C(C)C)C(N)=O [149Pm-DOTA-5-Ava-BBN[7-14]NH2]: 3.53
